Each item that follows carries a reported SPOT peptide array binding signal intensity.
target: ScRvs167; assay: SPOT peptide array binding signal intensity (averaged, normalized) (arbitrary units (background-subtracted, floor 0; scale differs between SH3 domains)); higher = stronger binding of the SH3 domain to the peptide
Please give only the number in your answer, with no unit.

Consider the worked cases shown below.
INSERT INTO measurements (binder, experimental_value) VALUES
  ('ERPKRRAPPPVPKKP', 151),
  ('QHQQRQPKRPKRYSL', 129),
  ('RLPAPPPPPRRGPAP', 795);

Task: Give the measured SPOT peptide array binding signal intensity of YHSRRHPLALGFKYV .
Output: 31.2

Task: Also NSVPIMPTLPPRPYI , if possible.
Output: 834

Task: And for DFTLPPPPPPPGLDE ?
Output: 3.33
